Biological target: human mGluR2 (Homo sapiens)
Construct: membrane preparation
Sequence (Q14416 19-872): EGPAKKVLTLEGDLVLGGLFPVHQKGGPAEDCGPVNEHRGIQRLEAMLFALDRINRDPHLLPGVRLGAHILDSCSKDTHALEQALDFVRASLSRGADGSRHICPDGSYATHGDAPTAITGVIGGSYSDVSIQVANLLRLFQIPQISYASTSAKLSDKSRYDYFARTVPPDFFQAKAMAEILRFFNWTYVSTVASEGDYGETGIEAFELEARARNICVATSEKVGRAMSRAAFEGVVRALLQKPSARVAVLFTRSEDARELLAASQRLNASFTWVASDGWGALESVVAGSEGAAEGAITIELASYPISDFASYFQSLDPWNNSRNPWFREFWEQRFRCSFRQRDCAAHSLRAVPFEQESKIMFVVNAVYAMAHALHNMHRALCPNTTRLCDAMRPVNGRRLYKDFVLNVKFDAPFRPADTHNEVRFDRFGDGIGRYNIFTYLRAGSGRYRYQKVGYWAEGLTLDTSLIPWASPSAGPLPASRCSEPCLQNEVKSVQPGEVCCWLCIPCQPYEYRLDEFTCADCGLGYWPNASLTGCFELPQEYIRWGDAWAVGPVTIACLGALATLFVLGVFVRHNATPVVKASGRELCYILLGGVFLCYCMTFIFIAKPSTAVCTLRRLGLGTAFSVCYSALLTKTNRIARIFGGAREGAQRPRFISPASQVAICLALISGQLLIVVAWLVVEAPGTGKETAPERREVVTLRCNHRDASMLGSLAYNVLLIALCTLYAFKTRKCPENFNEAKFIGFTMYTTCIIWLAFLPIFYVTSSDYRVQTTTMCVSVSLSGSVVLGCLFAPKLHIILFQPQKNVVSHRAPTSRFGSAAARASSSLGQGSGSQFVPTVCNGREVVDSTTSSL
Assay: [35S]-GTPγS binding assay of mGluR2 receptor activation (allosteric activator activity)
Settings: membranes from CHO cells stably expressing human mGluR2; in presence of 1 μM glutamate
pEC50: −log10 of the molar value.
Readout name: pEC50

(1) O=C1OC2(CCCCC2)CN1Cc1ccc(-c2ccccc2)cc1 [Example 3.2]
(2) O=C1OC2(CCC3(CC2)OCCO3)CN1Cc1ccc(-c2ccc(F)cc2)cc1 [Example 1.49]
(3) O=C1OC2(CCCCC2)CN1Cc1ccc(-c2ccc(NCCN3CCOCC3)nc2)cc1 [Example 1.30]
(4) O=C1OC2(CCCCC2)CN1Cc1ccc(-c2ccc(Oc3ccccc3)cc2)cc1 [Example 1.6]
Enquiry: Please put the entries in order of rising pEC50. Note for the reader: the ranking is given by listing the labels in the order requested.
Return: 3, 2, 1, 4
